Target: Anti-ANGPTL3 polyclonal antibody (ABC83, Sigma)
Test: SPR (Biacore T200), antibody immobilised on CM5, peptide as analyte at 1 mM
Square brackets hold non-standard residues; d marks the D form. Ends that are not written are not given here. APPA = 2-aminophenyl pentanoic acid; hArg = N=C(N)NCCCC[C@H](N)C(=O)O; Cit = NC(=O)NCCC[C@H](N)C(=O)O; Nle = CCCC[C@H](N)C(=O)O; Aib = CC(C)(N)C(=O)O
Recorded Relative response for the following binders
// units = RU; emit number, no label

Observe how each entry below is paired with its result.
RF[Aib]MLDDVKILANGLLQLGHGLKDFVHKTKGQI [Peptide of SEQ ID NO. 78 (RF-Aib-…)] = 5540
C[hArg]FAMLDDVKILANGLLQLGHGLKDFVHKTKGQI [Peptide of SEQ ID NO. 83 (C-Har-…)] = 5900

Lab note: CR[APPA]AMLDDVKILANGLLQLGHGLKDFVHKTKGQI [Peptide of SEQ ID NO. 86 (C-R-APPA-…)] gave Relative response of 5130

response.value for RFAMLDDV[Cit]ILANGLLQLGHGLKDFVHKTKGQI [Peptide of SEQ ID NO. 6 (RFAMLDDV-Cit-…)] (field: Relative response) = 6080

Reported Relative response ( C[Cit]FAMLDDV[Cit]ILANGLLQLGHGLKDFVHKTKGQI [Peptide of SEQ ID NO. 82 (C-Cit-FAMLDDV-Cit-…)] ) = 5520

Form field Relative response, entry CRFAM[Nle]DDVKILANGLLQLGHGLKDFVHKTKGQI [Peptide of SEQ ID NO. 5 (CRFAM-Nle-…)] : 5850
